# test-system: primary amine oxidase (SSAO/PrAO/VAP-1) (Homo sapiens)
# Construct: gene AOC3; native enzyme in homogenates of human subcutaneous adipose tissue
# Sequence (Q16853 1-763): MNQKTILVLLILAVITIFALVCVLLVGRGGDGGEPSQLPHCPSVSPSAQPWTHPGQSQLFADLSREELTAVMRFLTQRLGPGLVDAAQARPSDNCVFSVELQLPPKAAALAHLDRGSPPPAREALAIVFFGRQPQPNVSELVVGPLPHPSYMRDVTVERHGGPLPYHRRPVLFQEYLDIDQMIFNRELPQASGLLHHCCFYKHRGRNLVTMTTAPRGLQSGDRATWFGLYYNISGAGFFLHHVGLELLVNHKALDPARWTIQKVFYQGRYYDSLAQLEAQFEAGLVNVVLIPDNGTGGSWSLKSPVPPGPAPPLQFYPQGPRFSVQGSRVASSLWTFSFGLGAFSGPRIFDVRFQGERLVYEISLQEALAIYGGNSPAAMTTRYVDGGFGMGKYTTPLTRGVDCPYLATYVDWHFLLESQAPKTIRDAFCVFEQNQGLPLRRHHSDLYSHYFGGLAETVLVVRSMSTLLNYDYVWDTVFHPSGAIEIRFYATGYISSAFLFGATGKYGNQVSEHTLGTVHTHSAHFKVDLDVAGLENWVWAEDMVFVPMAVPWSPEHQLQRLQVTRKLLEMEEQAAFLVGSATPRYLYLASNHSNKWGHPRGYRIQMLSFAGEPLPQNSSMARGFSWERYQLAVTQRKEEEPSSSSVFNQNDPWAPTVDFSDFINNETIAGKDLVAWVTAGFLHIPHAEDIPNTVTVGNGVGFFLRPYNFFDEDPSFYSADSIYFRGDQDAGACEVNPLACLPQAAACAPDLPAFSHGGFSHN
# assay-comment: Amplex Red hydrogen peroxide assay of benzylamine oxidation in tissue homogenate, Lineweaver-Burk analysis
# Assay type: biochemical
quantity-name: pKi
Note on pKi: it is the negative log10 of concentration, concentration in mol/L.

Problem: State pKi (primary amine oxidase (SSAO/PrAO/VAP-1) (Homo sapiens)) of Cn1c(=O)c2c(ncn2C)n(C)c1=O [caffeine, 1,3,7-trimethylxanthine] .
Solution: 3.06
